growth at 1 µM: recorded values
Tested on: HOP-62
measurement-description: Cytotoxicity against human HOP62 cells assessed as cell growth at 1 uM after 48 hrs by sulforhodamine B assay relative to control
Format: functional
experimental-conditions: HOP-62, 48 h, read-out: Activity
Give the value, in units of %, as a plain number.

test-smiles	test-system	measurement-units	growth at 1 µM
COc1cc(C(=O)/C=C/c2cc(-c3cc(OC)c(OC)c(OC)c3)n[nH]2)cc(OC)c1OC	HOP-62	%	78
COc1cc(-c2cc(/C=C/C(=O)c3ccc(N)cc3)[nH]n2)cc(OC)c1OC	HOP-62	%	86
COc1ccc(-c2cc(/C=C/C(=O)c3cc(OC)c(OC)c(OC)c3)[nH]n2)cc1OC	HOP-62	%	71
COc1ccc(-c2cc(/C=C/C(=O)c3ccc(N)cc3)[nH]n2)cc1	HOP-62	%	102

(Q) Look up growth at 1 µM: COc1cc(-c2cc(/C=C/C(=O)c3ccc(F)c(F)c3)[nH]n2)cc(OC)c1OC
(A) 94

###

System: M14
measurement-description: Cytotoxicity against human M14 cells assessed as cell growth at 0.1 uM after 48 hrs by sulforhodamine B assay relative to control
Type: functional
experimental-conditions: M14, 48 h, read-out: Activity
growth at 0.1 µM: recorded values
Give the value, in units of %, as a plain number.

test-smiles	growth at 0.1 µM, %
COc1ccc(-c2cc(/C=C/C(=O)c3ccc(N)cc3)[nH]n2)cc1	103
COc1ccc(-c2cc(/C=C/C(=O)c3ccc(OC)c(OC)c3)[nH]n2)cc1	105
COc1ccc(C(=O)/C=C/c2cc(-c3cc(OC)c(OC)c(OC)c3)n[nH]2)cc1OC	98

(Q) Look up growth at 0.1 µM: COc1ccc(-c2cc(/C=C/C(=O)c3ccc(N)cc3)[nH]n2)cc1OC
(A) 97

###

Tested on: MDA-MB-435
measurement-description: Cytotoxicity against human MDA-MB-435 cells assessed as cell growth at 0.1 uM after 48 hrs by sulforhodamine B assay relative to control
Assay type: functional
experimental-conditions: MDA-MB-435, 48 h, read-out: Activity
outcome-measure: growth at 0.1 µM (%)
Give the value, in units of %, as a plain number.

// solved cases for growth at 0.1 µM follow
test-smiles	growth at 0.1 µM (%)
COc1cc(C(=O)/C=C/c2cc(-c3ccc4c(c3)OCO4)n[nH]2)cc(OC)c1OC	95
COc1cc2c(cc1OC)C(=O)/C(=C/c1cc(-c3ccc4c(c3)OCO4)n[nH]1)C2	96
COc1cc(C(=O)/C=C/c2cc(-c3cc(OC)c(OC)c(OC)c3)n[nH]2)cc(OC)c1OC	94
COc1ccc(-c2cc(/C=C/C(=O)c3ccc(N)cc3)[nH]n2)cc1	103
COc1ccc(-c2cc(/C=C/C(=O)c3ccc(OC)c(OC)c3)[nH]n2)cc1	95

(Q) Look up growth at 0.1 µM: COc1ccc(C(=O)/C=C/c2cc(-c3cc(OC)c(OC)c(OC)c3)n[nH]2)cc1OC
(A) 92

(Q) Look up growth at 0.1 µM: COc1cc(-c2cc(/C=C/C(=O)c3ccc4c(c3)OCO4)[nH]n2)cc(OC)c1OC
(A) 94

###

Test system: LOX IMVI
measurement-description: Cytotoxicity against human LOXIMVI cells assessed as growth inhibition after 48 hrs by sulforhodamine B assay
Assay type: functional
LC50: recorded values
Give the value, in units of µM, as a plain number.

test-smiles	reported
COc1cc(-c2cc(/C=C/C(=O)c3ccc(Cl)c(Cl)c3)[nH]n2)cc(OC)c1OC	78.4
COc1cc(-c2cc(/C=C/C(=O)c3ccc4c(c3)OCO4)[nH]n2)cc(OC)c1OC	7.83
COc1ccc(C(=O)/C=C/c2cc(-c3cc(OC)c(OC)c(OC)c3)n[nH]2)cc1OC	5.53

# next compound below
(Q) Look up LC50: COc1ccc(C(=O)/C=C/c2cc(-c3ccc4c(c3)OCO4)n[nH]2)cc1OC
(A) 8.46
